Target chain: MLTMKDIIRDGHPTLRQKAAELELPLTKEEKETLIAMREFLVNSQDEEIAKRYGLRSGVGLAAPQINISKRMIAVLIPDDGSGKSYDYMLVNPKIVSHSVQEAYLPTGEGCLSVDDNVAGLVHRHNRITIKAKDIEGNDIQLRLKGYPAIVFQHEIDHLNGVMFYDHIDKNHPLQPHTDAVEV
measure-name: IC50

Example results:
- O=C(CC1Sc2ccccc2N(CCc2ccccc2)C1=O)NO (stereo unspecified): < 5 nM
- O=C(CC1Cc2ccccc2N(CC2CC2)C1=O)NO (stereo unspecified): 175 nM
- CN1C(=O)C(CC(=O)NO)Sc2ccccc21 (stereo unspecified): 37 nM
- O=C(CC1C(=O)Nc2ccccc2S1(=O)=O)NO (stereo unspecified): > 2000 nM

Fill in: IC50 of O=C(CC1Sc2ccccc2N(CC2CCC2)C1=O)NO (stereo unspecified) is ___
41 nM

Entry O=C(CC1Sc2ccccc2N(CCC2OCCO2)C1=O)NO (stereo unspecified) please
< 5 nM
